Source: PubChem BioAssay

# Study Target: Short transient receptor potential channel 4 (Mus musculus) (UniProt Q9QUQ5)
# Sequence (Q9QUQ5 whole entry, looked up): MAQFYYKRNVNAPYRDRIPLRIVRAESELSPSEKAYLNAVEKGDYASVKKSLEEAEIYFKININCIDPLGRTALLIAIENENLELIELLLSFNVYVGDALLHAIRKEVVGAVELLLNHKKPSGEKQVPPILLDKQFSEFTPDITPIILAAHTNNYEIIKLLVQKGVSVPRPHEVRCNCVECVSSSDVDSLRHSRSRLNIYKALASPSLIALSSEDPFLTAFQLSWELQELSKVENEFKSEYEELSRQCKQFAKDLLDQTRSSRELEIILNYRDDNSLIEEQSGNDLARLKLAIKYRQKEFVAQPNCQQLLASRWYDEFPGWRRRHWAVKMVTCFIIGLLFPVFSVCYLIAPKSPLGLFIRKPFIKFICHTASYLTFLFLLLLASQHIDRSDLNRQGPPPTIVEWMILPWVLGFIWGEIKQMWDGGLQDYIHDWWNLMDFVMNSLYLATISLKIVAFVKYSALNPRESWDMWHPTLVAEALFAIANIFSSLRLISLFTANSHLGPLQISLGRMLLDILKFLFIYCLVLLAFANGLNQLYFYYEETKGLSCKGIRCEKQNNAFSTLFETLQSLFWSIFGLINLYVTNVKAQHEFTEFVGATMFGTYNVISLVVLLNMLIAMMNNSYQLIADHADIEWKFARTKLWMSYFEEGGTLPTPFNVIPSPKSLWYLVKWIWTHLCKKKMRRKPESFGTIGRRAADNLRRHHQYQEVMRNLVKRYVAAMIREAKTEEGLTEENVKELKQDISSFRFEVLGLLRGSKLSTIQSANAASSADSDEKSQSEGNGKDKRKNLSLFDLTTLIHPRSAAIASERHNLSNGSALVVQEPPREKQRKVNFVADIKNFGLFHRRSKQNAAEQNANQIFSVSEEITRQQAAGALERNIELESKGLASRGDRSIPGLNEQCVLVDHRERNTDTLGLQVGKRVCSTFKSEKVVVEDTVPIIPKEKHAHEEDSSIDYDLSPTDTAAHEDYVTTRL
# Measurement Protocol: mouse TRPC4 channel activators, dose response, cell-based, HEK293 TRPC4/mu-opioid, Fluo-4 calcium (AID 434937)
# Recorded Conditions: HEK293 TRPC4 cells, Fluo-4 calcium fluorescence ratio; series mostly up to 20 µM
Entries with a potency or affinity are not part of this list. The source made the active and inactive calls.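 The calls were made as follows: active = primary screen activator hit with a dose response curve and TRPC4 channel activation at any tested dose; inactive = no activation, no dose response, or not a primary hit.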
Measured Parameter: outcome

Recorded outcome, per entry:
Compound | Study Target | Measured Parameter | Reported Result
CCN(CC)P(=O)(/C=C(\Cl)c1ccccc1)/C=C(\Cl)c1ccccc1 | Short transient receptor potential channel 4 (Mus musculus) (UniProt Q9QUQ5) | outcome | inactive
Nc1c([N+](=O)[O-])cc(F)c(N2CCNCC2)c1Br | Short transient receptor potential channel 4 (Mus musculus) (UniProt Q9QUQ5) | outcome | inactive
CN1CCN(Cc2cc(=O)n3ccsc3n2)CC1 | Short transient receptor potential channel 4 (Mus musculus) (UniProt Q9QUQ5) | outcome | inactive
CCn1ccnc1CN1CCCC(C(=O)c2cccc(C(F)(F)F)c2)C1 (configuration not stated) | Short transient receptor potential channel 4 (Mus musculus) (UniProt Q9QUQ5) | outcome | inactive
CCc1nccc2c1[nH]c1ccccc12 | Short transient receptor potential channel 4 (Mus musculus) (UniProt Q9QUQ5) | outcome | inactive
COc1ccc(CN2CCCC(C(=O)c3sccc3C)C2)cc1O (configuration not stated) | Short transient receptor potential channel 4 (Mus musculus) (UniProt Q9QUQ5) | outcome | inactive
CCN(CC)CC(=O)Nc1ccc(Cl)cc1C(=O)c1ccccc1 | Short transient receptor potential channel 4 (Mus musculus) (UniProt Q9QUQ5) | outcome | inactive
CC(C)CN(CC(C)C)c1ccc(C=C2C(=O)NC(=S)NC2=O)cc1[N+](=O)[O-] | Short transient receptor potential channel 4 (Mus musculus) (UniProt Q9QUQ5) | outcome | inactive
Clc1ccc(OCC#CCN2CCCC2)cc1 | Short transient receptor potential channel 4 (Mus musculus) (UniProt Q9QUQ5) | outcome | inactive
CCOC(=O)C1(c2ccccc2)CCN(CC(=O)Nc2ccc(C)cc2)CC1 | Short transient receptor potential channel 4 (Mus musculus) (UniProt Q9QUQ5) | outcome | inactive

Asked: I'm curious: which outcome was measured for Cc1ccc(-c2nc(N(C)C3CCN(C)CC3)c3ccccc3n2)cc1 tested on Short transient receptor potential channel 4 (Mus musculus) (UniProt Q9QUQ5)?
Given back: inactive

Asked: I'm curious: which outcome was measured for COc1ccc(OC)c(CN2CCCC(C(=O)c3sccc3C)C2)c1 (configuration not stated) tested on Short transient receptor potential channel 4 (Mus musculus) (UniProt Q9QUQ5)?
Given back: inactive

Asked: I'm curious: which outcome was measured for CCc1ccc(OCCCN=C(C)c2c(O)n(C)c(=O)n(C)c2=O)cc1 tested on Short transient receptor potential channel 4 (Mus musculus) (UniProt Q9QUQ5)?
Given back: inactive

Asked: I'm curious: which outcome was measured for COc1cccc(O)c1CN1CCCC(C(=O)c2sccc2C)C1 (configuration not stated) tested on Short transient receptor potential channel 4 (Mus musculus) (UniProt Q9QUQ5)?
Given back: inactive

Asked: I'm curious: which outcome was measured for COC(=O)C(Cc1ccc(N(CCCl)CCCl)cc1)N=Cc1ccccc1O (configuration not stated) tested on Short transient receptor potential channel 4 (Mus musculus) (UniProt Q9QUQ5)?
Given back: inactive

Asked: I'm curious: which outcome was measured for O=C(Cc1ccccc1)N1CCN(Cc2cccc(Br)c2)CC1 tested on Short transient receptor potential channel 4 (Mus musculus) (UniProt Q9QUQ5)?
Given back: inactive

Asked: I'm curious: which outcome was measured for COc1ccc(Br)cc1CN1CCN(C(=O)Cc2ccccc2)CC1 tested on Short transient receptor potential channel 4 (Mus musculus) (UniProt Q9QUQ5)?
Given back: inactive

Asked: I'm curious: which outcome was measured for COC(=O)C1=C(c2cc3ccccc3s2)C[C@@H]2CC[C@H]1N2C(=O)NCCO tested on Short transient receptor potential channel 4 (Mus musculus) (UniProt Q9QUQ5)?
Given back: inactive

Asked: I'm curious: which outcome was measured for COc1ccc(C[C@@H]2c3cc(O)c(OC)cc3CCN2C)cc1O tested on Short transient receptor potential channel 4 (Mus musculus) (UniProt Q9QUQ5)?
Given back: inactive

Asked: I'm curious: which outcome was measured for Nc1ccccc1-[n+]1c(-c2ccccc2)cc(-c2ccccc2)cc1-c1ccccc1 tested on Short transient receptor potential channel 4 (Mus musculus) (UniProt Q9QUQ5)?
Given back: inactive

Asked: I'm curious: which outcome was measured for CCOC(=O)C1(CCc2ccccc2)CCN(Cc2ccco2)CC1 tested on Short transient receptor potential channel 4 (Mus musculus) (UniProt Q9QUQ5)?
Given back: inactive

Asked: I'm curious: which outcome was measured for COc1ccc(O)c(CN2CCCC(C(=O)c3sccc3C)C2)c1 (configuration not stated) tested on Short transient receptor potential channel 4 (Mus musculus) (UniProt Q9QUQ5)?
Given back: inactive

Asked: I'm curious: which outcome was measured for Cc1cc(OC(C)C(=O)NCc2ccncc2)c2c3c(c(=O)oc2c1)CCCC3 (configuration not stated) tested on Short transient receptor potential channel 4 (Mus musculus) (UniProt Q9QUQ5)?
Given back: inactive

Asked: I'm curious: which outcome was measured for O=C(c1cccc(C(F)(F)F)c1)C1CCCN(Cc2ccccc2O)C1 (configuration not stated) tested on Short transient receptor potential channel 4 (Mus musculus) (UniProt Q9QUQ5)?
Given back: inactive

Asked: I'm curious: which outcome was measured for CC(=O)OC1(c2ccccc2)CCN(C2CCCCC2)CC1C (configuration not stated) tested on Short transient receptor potential channel 4 (Mus musculus) (UniProt Q9QUQ5)?
Given back: inactive

Asked: I'm curious: which outcome was measured for Cc1cccc(N=Cc2c(O)n(-c3ccccc3C)c(=O)[nH]c2=O)c1 tested on Short transient receptor potential channel 4 (Mus musculus) (UniProt Q9QUQ5)?
Given back: inactive

Asked: I'm curious: which outcome was measured for Oc1c(Br)cc(Br)cc1CN1CCN(Cc2ccccc2)CC1 tested on Short transient receptor potential channel 4 (Mus musculus) (UniProt Q9QUQ5)?
Given back: inactive

Asked: I'm curious: which outcome was measured for FC(F)(F)c1ccc(CN2CCNCC2)cc1 tested on Short transient receptor potential channel 4 (Mus musculus) (UniProt Q9QUQ5)?
Given back: inactive
